Target: T1, Human ST2 (human, UniProt Q01638 19-328, limits assumed)
T1 construct: also called human ST2 protein; Interleukin 1 receptor-like 1
T1 sequence (looked up): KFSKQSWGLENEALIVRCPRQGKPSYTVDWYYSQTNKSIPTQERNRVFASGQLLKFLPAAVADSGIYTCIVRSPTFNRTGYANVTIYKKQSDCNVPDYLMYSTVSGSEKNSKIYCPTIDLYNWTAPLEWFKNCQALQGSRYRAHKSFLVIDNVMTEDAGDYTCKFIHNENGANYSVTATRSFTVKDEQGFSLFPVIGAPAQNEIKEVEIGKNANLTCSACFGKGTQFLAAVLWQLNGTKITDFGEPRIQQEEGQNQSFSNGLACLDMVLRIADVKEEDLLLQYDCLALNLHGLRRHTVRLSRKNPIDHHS
Experiment: SPR (Carterra), antibody immobilized, ST2 analyte
Assign YES whenever koff does not fall below 0.04 s⁻¹; assign NO whenever it does.

These recorded examples may help you get a feel for the data.
{"binder": "Human ST2 IgG1 Antibody 94 (antibody, V domains shown, IgG1; also called ST2 Antibody 94) VH: QVQLVQSGAEVKKPGSSVKVSCKASGGILNSYAITWVRQAPGQGLEWMGRIIPILGIANYAQKFQGRVTITADESTSTAYMELSSLRSEDTAVYYCVENESGPLFDYWGQGTLVTVSS VL: EIVMTQSPATLSVSPGERATLSCRASQSVYSSYLAWYQQKPGQAPRLLIYGTSSRAAGIPARFSGSGSGTEFTLTISSLQSEDFAVYYCQQYYSTPYTFGQGTKVEIKR", "category-label": "YES"}
{"binder": "Human ST2 IgG1 Antibody 98 (antibody, V domains shown, IgG1; also called ST2 Antibody 98) VH: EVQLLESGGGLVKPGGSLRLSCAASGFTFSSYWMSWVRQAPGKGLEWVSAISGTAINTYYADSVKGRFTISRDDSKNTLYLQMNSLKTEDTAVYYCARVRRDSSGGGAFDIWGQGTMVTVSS VL: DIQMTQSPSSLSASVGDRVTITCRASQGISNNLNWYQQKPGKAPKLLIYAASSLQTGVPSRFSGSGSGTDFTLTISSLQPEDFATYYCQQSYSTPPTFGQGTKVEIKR", "category-label": "NO"}
{"binder": "Human ST2 IgG1 Antibody 46 (antibody, V domains shown, IgG1; also called ST2 Antibody 46) VH: EVQLLESGGGLVKPGGSLRLSCAASGFTFSSYWMSWVRQAPGKGLEWVSSISGTSNYMYYADSVKGRFTISRDDSKNTLYLQMNSLKTEDTAVYYCARDRGFLGYFDYWGQGTLVTVSS VL: DIQMTQSPSSLSASVGDRVTITCQASQYISNYLNWYQQKPGKAPKLLIYGASTLQSGVPSRFSGSGSGTDFTLTISSLQPEDFATYYCQQSQSTPLTFGPGTKVDIKR", "category-label": "YES"}
{"binder": "Human ST2 IgG1 Antibody 89 (antibody, V domains shown, IgG1; also called ST2 Antibody 89) VH: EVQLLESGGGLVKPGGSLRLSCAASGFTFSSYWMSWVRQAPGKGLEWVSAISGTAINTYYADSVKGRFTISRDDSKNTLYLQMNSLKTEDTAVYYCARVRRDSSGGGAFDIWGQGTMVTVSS VL: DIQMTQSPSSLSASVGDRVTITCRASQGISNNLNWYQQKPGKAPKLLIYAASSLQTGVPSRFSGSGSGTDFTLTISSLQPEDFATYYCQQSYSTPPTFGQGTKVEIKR", "category-label": "NO"}
{"binder": "Human ST2 IgG1 Antibody 52 (antibody, V domains shown, IgG1; also called ST2 Antibody 52) VH: QVQLVQSGAEVKKPGSSVKVSCKASGGTFSNYAISWVRQAPGQGLEWMGWISAYNGNTNYAQKFQGRVTITADESTSTAYMELSSLRSEDTAVYYCARLSTVTTRPYYYYGMDVWGQGTTVTVSS VL: DIVMTQSPLSLPVTPGEPASISCRSSQSLLHSNGYNYLDWYLQKPGQSPQLLIYAASSLQGGVPDRFSGSGSGTDFTLKISRVEAEDVGVYYCMQGTHWPTFGQGTKVEIKR", "category-label": "YES"}

Req: hey, is koff for this one >= 0.04 s⁻¹? Human ST2 IgG1 Antibody 36 (antibody, V domains shown, IgG1; also called ST2 Antibody 36) VH: QVQLVQSGAEVKKPGASVKVSCKASGYTFTSYGISWVRQAPGQGLEWMGWIDPNSGGTNYAQKFQGRVTMTRDTSTSTVYMELSSLRSEDTAVYYCARDDWFSGDLDYWGQGTLVTVSS VL: DIQMTQSPSSLSASVGDRVTITCRASQGIDSWLAWYQQKPGKAPKLLIYAASKLQGGVPSRFSGSGSGTDFTLTISSLQPEDFATYYCQQGYSTPITFGQGTKVDIKR
Resp: YES

Req: Answer whether koff of Human ST2 IgG1 Antibody 6 (antibody, V domains shown, IgG1; also called ST2 Antibody 6) VH: EVQLLESGGGLVKPGGSLRLSCAASGFTFSSYWMSWVRQAPGKGLEWVSAIGGSGAGTYYADSVKGRFTISLDDSKNTLYLQMNSLKTEDTAVYYCARLSTVTRGFDYWGQGTLVTVSS VL: DIQMTQSPSSLSASVGDRVTITCRASQSISNWLAWYQQKPGKAPKLLIYSASSLQNGVPSRFSGSGSGTDFTLTISSLQPEDFATYYCQQSYSTPPTFGQGTKVEIKR is greater than or equal to 0.04 s⁻¹.
Resp: YES

Req: Could you tell me if the measured koff of Human ST2 IgG1 Antibody 5 (antibody, V domains shown, IgG1; also called ST2 Antibody 5) VH: EVQLLESGGGLVQPGGSLRLSCAASGFTFSSYWMSWVRQAPGKGLEWVSSISSDTTYKYYADSVKGRFTISRDNSKNTLYLQMNSLRAEDTAVYYCAREVDTAMKNWGQGTLVTVSS VL: DIQMTQSPSSLSASVGDRVTITCRASQGIGNDLAWYQQKPGKAPKLLIYAASSLQSGVPSRFSGSGSGTDFTLTISSLQPEDFATYYCQQSYSTPYTFGQGTKVEIKR reaches 0.04 s⁻¹ or more?
Resp: YES

Req: Entry Human ST2 IgG1 Antibody 63 (antibody, V domains shown, IgG1; also called ST2 Antibody 63) VH: QVQLVQSGAEVKKPGSSVKVSCKASGGTFSSDAINWVRQAPGQGLEWMGGIVPAFGTANYAQKFQGRVTITADESTSTAYMELSSLRSEDTAVYYCARSSSSWPYYYYYMDVWGKGTTVTVSS VL: DIVMTQSPLSLPVTPGEPASISCRSSQSLLLNNGNNFIDWYLQKPGQSPQLLIYAASILQGGVPDRFSGSGSGTDFTLKISRVEAEDVGVYYCMQALQTPPTFGQGTKVEIKR : is its koff no less than 0.04 s⁻¹?
Resp: YES

Req: Could you tell me if the measured koff of Human ST2 IgG1 Antibody 80 (antibody, V domains shown, IgG1; also called ST2 Antibody 80) VH: QVQLVQSGAEVKKPGSSVKVSCKASGGTFSSYAISWVRQAPGQGLEWMGGIIPIFGTANYAQKFQGRVTITADESTSTAYMELSSLRSEDTAVYYCARVMVAGTGYYFDYWGQGTLVTVSS VL: DIVMTQSPLSLPVTPGEPASISCRSSQSLLHSNGYNYLDWYLQKPGQSPQLLIYGASSLQSGVPDRFSGSGSGTDFTLKISRVEAEDVGVYYCMQGLHTPPTFGQGTKLEIKR reaches 0.04 s⁻¹ or more?
Resp: YES

Origin of measurements: patent US20210403579A1
